Method: in vivo
Protocol conditions: Sprague-Dawley, rat, po, 5 mg/kg
Quick reference: AUC(0-t) at 24 h of the listed items.
Measure: AUC(0-t) at 24 h

| Smiles representation | Measure | Result |
| --- | --- | --- |
| C=C(C)[C@@H]1CC[C@]2(NCCN3CCS(=O)(=O)CC3)CC[C@]3(C)[C@H](CC[C@@H]4[C@@]5(C)CC=C(c6ccc(C(=O)O)c(F)c6)C(C)(C)[C@@H]5CC[C@]43C)[C@@H]12 | AUC(0-t) at 24 h | 24.3 µM·h |
| C=C(C)[C@@H]1CC[C@]2(NCCN3CCS(=N)(=O)CC3)CC[C@]3(C)[C@H](CC[C@@H]4[C@@]5(C)CC=C(c6ccc(C(=O)O)cc6)C(C)(C)[C@@H]5CC[C@]43C)[C@@H]12 | AUC(0-t) at 24 h | 20.7 µM·h |
| C=C(C)[C@@H]1CC[C@]2(NCCCN3CCS(=O)(=O)CC3)CC[C@]3(C)[C@H](CC[C@@H]4[C@@]5(C)CC=C(c6ccc(C(=O)O)cc6)C(C)(C)[C@@H]5CC[C@]43C)[C@@H]12 | AUC(0-t) at 24 h | 9.61 µM·h |
